Values compiled from PubChem BioAssay (NCI).

tested on: T-47D breast; test: NCI-60 one-dose screen, 48 h (100 = growth as untreated, 0 = no growth, -100 = all killed); conditions: 10 µM unless noted
The panel holds about 83,000 compounds, 20% with a hit somewhere; the sample as a whole holds those more often.
// label = true (1) if growth is not less than 80%, otherwise false (0)

Evaluate CCNCCNc1cc(-c2ccc(Cl)cc2)c(C#N)c2nc3ccccc3n12 : growth at minimum 80%? false (0)

Assess whether reported growth for Cc1c(C(N)=O)sc2nc(C)n(/N=c3\scc(-c4ccccc4)n3Cc3ccccc3)c(=O)c12 sits at 80% or higher. false (0)

In plain terms: is recorded growth at least 80% for NC(N)=N/N=C(/c1ccccc1)c1ccc(N)cc1 ? true (1)

Hi team, for CC(C)(C)c1ccc(C(=O)Nc2sc3c(c2C(N)=O)CCC(=O)C3)cc1 , is the recorded growth at or above 80%? false (0)

Exam item: decide whether the reported growth for CCCNCC(=O)Nc1ccc(C(=O)OC(C)(C)CC)cc1 is at least 80%. true (1)

Reported growth at or above 80%? Cc1ccc(NC(=O)C(Cl)Cl)cc1 true (1)

Quick check, growth >= 80%? CC1(C)CC(=O)c2c(ccc(C(=O)C[C@H](N)CO)c2N)O1 false (0)

Does O=[N+]([O-])c1cccc(/C=C/c2ccccn2)c1 have a reported growth of at least 80%? false (0)

Does the compound COc1cc2c(=O)n(CCCn3ccnc3)c3c4cc5c(cc4ccc3c2cc1OC)OCO5 have recorded growth that is 80% or more? false (0)

* * *

Test system: OVCAR-5 ovarian
Assay: NCI-60 one-dose screen, 48 h
Conditions: 10 µM unless noted
Experimental: Growth inhibition of the OVCAR-5 human tumor cell line is measured as a screen for anti-cancer activity. Cells are grown in 96 well plates and exposed to the test compound for 48 hours. Compounds are tested at a single concentration, which is 10^-5 M for most compounds. The reported endpoint is percent growth (GI% or GIPRCNT), where numbers from 0 - 100% represent growth inhibition, and numbers from -100% - 0 represent cell death. For example, a value of 40 represents 60% growth inhibition. […]
Compounds without any hit were thinned out: in the full panel of roughly 83,000, 20% have a hit. Active and inactive are the calls of the source. Rule for the calls: active = growth percent below 10; inactive = the rest.
Mark one answer only. Choices: yes for active, no for inactive

Each compound tested received a call. Report the one for CCCCC1COc2cccc3c(SCC(=O)N(C)c4cccc(Cl)c4)cc[n+]1c23 (centres undefined) . no

Please let me know the test result on file for CCNCCNc1cc(-c2ccc(C#N)cc2)c(C#N)c2nc3ccccc3n12 . no

Dear colleague, could you share the recorded outcome for O=c1[nH]nc(-c2ccc(Cl)cc2)cc1Cc1ccccc1 when you have a moment? no

Hello, I am checking results. What call was entered for C/C(=N\NC(=O)Cn1c(-c2ccc(S(C)(=O)=O)cc2)nc2cc(Cl)ccc21)c1ccc(Cl)cc1 ? no

For COc1ccc(C2CC(c3ccc4ccccc4c3)=NN2c2nc(O)c(C3=c4cc(Cl)ccc4=NC3=O)s2)cc1 (centres undefined) , what call appears in the results of this test? yes

Each compound tested received a call. Report the one for Nc1ccc(-c2cc3c(Nc4ccc(OCc5cccc(F)c5)c(Cl)c4)ncnc3s2)cc1 . no

What did this assay record as the result for O=C1c2ccccc2C2(c3ccc(O)cc3)c3ccccc3Oc3cccc1c32 (centres undefined) ? no

Tell me the assay call for Clc1ccc(/C=N\N=c2\scc(-c3ccc(Cl)cc3)n2/N=C/c2ccc(Cl)cc2)cc1 please. no

Status in this test for C=C(CNCCc1ccc(O)cc1)[C@@H]1CC[C@]2(COC3CCCCO3)CC[C@]3(C)[C@H](CC[C@@H]4[C@@]5(C)CCC(N)C(C)(C)[C@@H]5CC[C@]43C)[C@@H]12 (some centres undefined) ? yes

Which outcome was assigned to N#C/C=C(\c1ccc([N+](=O)[O-])cc1)n1nnc2cc(Cl)c(Cl)cc21 in this test? no

How was NC(=S)N/N=C/C(=O)O classified in this test? no

Give the logged outcome of this assay for the following compound: COc1cc2c(O)n(CCCn3ccnc3)c3c4cnc5cccc(c(=O)c3c2cc1OC)c54 no

Assay result, entry N=C(N)c1ccc(-c2ccc(-c3ccc(Cl)cc3Cl)o2)nc1 — outcome? no

Please state the recorded outcome for this compound: Fc1ccc(Nc2ccc3cc(OCCCN4CCOCC4)ccc3n2)cc1F no

Hello, I am checking results. What call was entered for O=C(Oc1ccc[nH]c1=O)c1cc([N+](=O)[O-])cc([N+](=O)[O-])c1 ? no

Each compound tested received a call. Report the one for C=CCO[C@H]1CO[C@H]2[C@@H]1OC[C@@H]2Oc1ccc(Nc2ccnc(Nc3ccc(O[C@H]4CO[C@H]5[C@@H]4OC[C@@H]5OCC=C)c(Cl)c3)n2)cc1Cl . yes

For Cn1cc(-c2ccc3ncc(-c4ccc(CC(=O)Nc5cc(C(C)(C)C)nn5C)cc4)cc3c2)cn1 , which call appears in the assay record? no

Could you check what this test reported for O=C1CSC(c2ccccc2Cl)N1c1nnc(Cn2cnnc2)o1 (centres undefined) ? no

// outcome(item) with item = COc1cc(/C=C/c2nc(Nc3ccc(S(=O)(=O)Nc4cc(C)on4)cc3)c3ccccc3n2)ccc1O no
